This section presents IC50 values reported for UniProt:Q06418 in the literature.
OBSERVABLE: IC50

- COC[C@H](C)Nc1ncc2c(OC3CCOCC3)ncc([C@@H]3CCCNC3)c2n1: 1000 to 10000 nM
- COC[C@H](C)Nc1ncc2c(-c3ccc([C@H](C)N4CCCC4)cc3)cc([C@H]3CC[C@H](O)CC3)n2n1: ≤ 100 nM
- CC(=O)N1CCN(Cc2ccc(-c3cc(C4CCC(O)CC4)n4nc(NC(C)CC(F)(F)F)ncc34)cc2)CC1 (stereo not shown): ≤ 100 nM
- CC[C@@H](C)Nc1ncc2c(OC3CC(C)(C)N(C)C(C)(C)C3)ncc([C@H]3CC[C@H](O)CC3)c2n1: ≤ 100 nM
- CCCC(C)Nc1ncc2c(OC3CCN(S(C)(=O)=O)CC3)ncc([C@H]3CC[C@H](O)CC3)c2n1 (stereo partly shown): ≤ 100 nM
- CC(=O)NCC1(c2cccc(-c3ncnc4[nH]ccc34)c2)Cc2ccccc2C1: > 3000 nM
- COC[C@H](C)Nc1ncc2c(-c3cnn(CC(=O)N4CCCC4)c3)cc([C@H]3CC[C@H](O)CC3)n2n1: ≤ 100 nM
